Biological target: the molecule itself
Experiment: SEC
percent dimer (Monomer:Dimer Ratio) values by entry
Give the number; % is assumed, so skip it.

Some solved cases for reference:
• MjCobY^G8D (enzyme, Methanocaldococcus jannaschii, UniProt Q58517 1-196, looked up) MDALIMADGKGTRMGGVEKPLIKLCGRCLIDYVVSPLLKSKVNNIFIATSPNTPKTKEYINSAYKDYKNIVVIDTSGKGYIEDLNECIGYFSEPFLVVSSDLINLKSKIINSIVDYFYCIKAKTPDVEALAVMIPKEKYPNPSIDFNGLVPAGINVVSPKHGYQKEEIMVIDELIFNINTKDDLKLAEMLLKKDGL = 67
• MjCobY R13A (enzyme, Methanocaldococcus jannaschii, UniProt Q58517 1-196, looked up) MDALIMAGGKGTAMGGVEKPLIKLCGRCLIDYVVSPLLKSKVNNIFIATSPNTPKTKEYINSAYKDYKNIVVIDTSGKGYIEDLNECIGYFSEPFLVVSSDLINLKSKIINSIVDYFYCIKAKTPDVEALAVMIPKEKYPNPSIDFNGLVPAGINVVSPKHGYQKEEIMVIDELIFNINTKDDLKLAEMLLKKDGL = 86

// lookup percent dimer (Monomer:Dimer Ratio) for MjCobY T53S (enzyme, Methanocaldococcus jannaschii, UniProt Q58517 1-196, looked up) MDALIMAGGKGTRMGGVEKPLIKLCGRCLIDYVVSPLLKSKVNNIFIATSPNSPKTKEYINSAYKDYKNIVVIDTSGKGYIEDLNECIGYFSEPFLVVSSDLINLKSKIINSIVDYFYCIKAKTPDVEALAVMIPKEKYPNPSIDFNGLVPAGINVVSPKHGYQKEEIMVIDELIFNINTKDDLKLAEMLLKKDGL
24

Each recorded value in this set is attributed to paper PMC3125946.
